Measurement Protocol: amyloid nucleation score (Sup35N fusion, yeast selection) (log enrichment); library NNK2; higher = more nucleation; inactive = no reads after selection;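 note: zero at mode of non-aggregating sequences after 7 days selection at 30°C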
Assay Readout: amyloid nucleation score
Answers are plain numbers.

The examples below pair each entry with its known result.
1) VDSPKREVNMCVWLLRRKQR 0.21
2) FYVVALGYKIVLCTMFYMLE -1.16
3) NTFFQYDPRHRGHTAGWCGE 0.07
4) TLKRSRPVLYNLYNGFVVVA 2.25
5) IIYYIMVTFWYSVYQPFRSF -0.081

Kindly give each listed record's amyloid nucleation score.
1. CFVIGLSMNLGHAGHKVWMT
2. GTCFQTINMGGCLIGGPG
3. GFSSNLVVLKKPS

4.75
2.69
-0.249

====

So I've got a bunch of substances here, and I need their amyloid nucleation score values.
Measurement Protocol: amyloid nucleation score (Sup35N fusion, yeast selection) (log enrichment); library NNK2; higher = more nucleation; inactive = no reads after selection
One number for each entry.

1) THSWGFSLYTFLVYINLSYI -0.545

Kindly give each listed record's amyloid nucleation score.
1. KKNSAVHVYF
2. IIRDPTACTFLVCVSYME
3. LFYGNWPVFKGVLFCAVLVG
4. LVCSCIGHVHGVTH

1: -1.01; 2: 6.27; 3: 0.092; 4: 7.12

Kindly give each listed record's amyloid nucleation score.
1. NPLYEARKRNRLYTFGATRF
2. VLWMVQMIRPRSS
3. DVDFRSMCEGTFSLNDQPNR
4. CITLRYYMDVRLSLHMKRTW
5. YGRCVDLFCGIRYLHGSRLA
6. CCFRKWSSTAHRRFPCWREL

1. 3.65
2. 7.02
3. -0.825
4. 0.988
5. -0.299
6. 0.255

Kindly give each listed record's amyloid nucleation score.
1. GIGMRQYMNT
2. RRPFVRRLFVLKNMFNSLGR
3. MPLCECHNKGHVDFCDTRTA

1. 0.823
2. -0.707
3. -0.072

====

So I've got a bunch of substances here, and I need their amyloid nucleation score values.
Measurement Protocol: amyloid nucleation score (Sup35N fusion, yeast selection) (log enrichment); library NNK1; higher = more nucleation; inactive = no reads after selection
One number for each entry.

The examples below pair each entry with its known result.
1. YMSVWFVTVSMDCVGRNSRT 4.19
2. LIWFVYMD 0.347
3. PLELPVVFIMSDFSFWRRAQ 0.555
4. SHYNNNHSAGWLLQLFTMAC 0.05
5. DICVWDYMNRGGQLL -0.047

Kindly give each listed record's amyloid nucleation score.
1. VRCCGPFRACIVLLAITKDG
2. CSYLSLRRKCVDTQFLYDMM
3. SHIFRWNTCRMEIRWYNQYY
4. LRAWMSVASDNGLLMFCRNH
5. CIISGMLWLAMKRTMGIELW

1: -0.393; 2: -0.199; 3: 1.14; 4: -0.324; 5: 2.88

Kindly give each listed record's amyloid nucleation score.
1. LYGLLAGIMSCHWLSWIACK
2. VSGDPNMRLCAISIATGFVF
3. LNRTRCLWL
4. FTRGDICLYLFCELFRPVNC

1. -0.96
2. -0.468
3. 0.877
4. 2.29

Kindly give each listed record's amyloid nucleation score.
1. YRICVKSSVQAGRLMFKVTG
2. FTLMGNSCHRGLV
3. FMFYTYHVNSYFSILCSVSN
4. FKSTPVFKQWRNGGTDGLTG
5. IVRSAVRLELSGLPRCQGIS
6. GCDTQLQMGLFMSYIMNTSV

1. -1.61
2. -0.66
3. 0.655
4. -0.958
5. -0.065
6. -0.621

Kindly give each listed record's amyloid nucleation score.
1. LVYRCASRRVSNSFMLCW
2. VITIGMFCRIIEGHYVMYLT
3. QLLPISGKVWAVISSGLG

-0.542
0.089
-0.029

====

Measurement Protocol: amyloid nucleation score (Sup35N fusion, yeast selection) (log enrichment); library NNK2; higher = more nucleation; inactive = no reads after selection
So I've got a bunch of sequences here, and I need their amyloid nucleation score values.
Answers are plain numbers.

The examples below pair each entry with its known result.
1) MELRFDCF 0.089
2) TCVRWYGNIW -0.424
3) FRGIGWAC 0.907

Kindly give each listed record's amyloid nucleation score.
1. VLMINWMKVADFHEYFFICH
2. LNDNSIGSVILFFSAFLLFY
3. FISMGQGRPEFLWVFVDVGD
4. SVKHGMLCYTLLDNMRCTVE

1: 6.3; 2: 2.92; 3: 0.092; 4: -0.087

====

Measurement Protocol: amyloid nucleation score (Sup35N fusion, yeast selection) (log enrichment); library NNK3; higher = more nucleation; inactive = no reads after selection
Assay Readout: amyloid nucleation score

1) RVPGVCVYLCNEVACSTLCI 2.03
2) FSMVCSFKWL inactive
3) QARRSIYSISECGGGI 0.234
4) KNCIGRFW inactive
5) RLGWFYRNIYLLTVEVGRGR inactive

Kindly give each listed record's amyloid nucleation score.
1. ENVLVVRMDRVLY
2. CFVFTFGT
3. GIQIYAMFTFSKSFMLGNWY
4. VRSRMSNWFNHPTVFDRLWA

1. inactive
2. 1.38
3. inactive
4. 0.547

====

Measurement Protocol: amyloid nucleation score (Sup35N fusion, yeast selection) (log enrichment); library NNK1; higher = more nucleation; inactive = no reads after selection
Assay Readout: amyloid nucleation score
Answers are plain numbers.

The examples below pair each entry with its known result.
1. VPHLNGCISFWNVSVGYKVP 5.44
2. ISHKQITTDSSNTVRVYGGN -0.122
3. AWYMPIWFLAYFL 1.24
4. LGPYQTCR 1.58
5. NHHLRPEMQEVCHL 0.482
6. VSKLLCLRMHMLKLW -0.48

Kindly give each listed record's amyloid nucleation score.
1. FLGMIFTELSINMKVSRRP
2. TGNTIAVRLLGKTNWTLIKT
3. PFILFQWPTLHRDYVHAQVL

-1.12
-0.1
0.686

====

Measurement Protocol: amyloid nucleation score (Sup35N fusion, yeast selection) (log enrichment); library NNK2; higher = more nucleation; inactive = no reads after selection
Assay Readout: amyloid nucleation score
Answers are plain numbers.

Kindly give each listed record's amyloid nucleation score.
1. FYVLFGSF
2. SWCIMALRTF

-2.07
0.249

Kindly give each listed record's amyloid nucleation score.
1. DDIFNWFGVLGSNPLMVSVG
2. CGGAGRMLWGLADSNAALEA
3. FLEQFVMSLT
4. AYMSYRAGMDRLQCDVS
5. IFTYCVWSFSWFW
6. IAVATSGP
7. LRFRKMAKKCNYVVRVVLGF
8. EGWTWGGRLNKAQILTECVL

[0.811, 0.163, -0.752, -0.947, 7.3, 0.84, -0.273, 1.49]

Kindly give each listed record's amyloid nucleation score.
1. GDKLIEGRASGKGNWILERG
2. YYTCTLSRWRQSAYLGGRLR
3. TILCFCAC
4. YKISDRVALISYPNFAIVWT
5. SLQYRTSDSQWYVVYCSQEP
6. REWWYKKALPQCENTIGVGQ
7. ARVRTMSVRFPVLSVVCYKL
8. VNPCVWIRIYWRS

1. 1.19
2. 0.284
3. 4.86
4. -2.25
5. 0.484
6. 0.721
7. 3.69
8. -0.014

Kindly give each listed record's amyloid nucleation score.
1. GNVRVECANLYRAVLPDMGH
2. ADNFICIIETYSYILVWRSS
3. TTAWSVEINGTMRNDDMSAS
4. ISQAWVS
5. IHICKQTCG

1. -0.167
2. -0.552
3. 2.2
4. -0.329
5. 0.812

Kindly give each listed record's amyloid nucleation score.
1. APSVLGAYQIHRGRVHVLSA
2. QGYLLFN
3. TYTYSSCRIARRS
4. YNPSYLMELNEV

0.494
0.467
-0.559
-0.376

Kindly give each listed record's amyloid nucleation score.
1. PHDGMHINT
2. GNLDRYRYLETDKSGAMLGV
3. RIPHHWMSVGLVIAPRLKSV
4. VTNYVEFCTGFRICGVSLPC
5. YCYKSCCRDKLY
6. VTTMRNSFKFYAIVMGLCSF
7. VVVDGSLRVNLVSQGDPNNV

1: 1.53; 2: 4.3; 3: -0.365; 4: 8.39; 5: -0.072; 6: 0.272; 7: 1.07

Kindly give each listed record's amyloid nucleation score.
1. GVSASQSTMLNCDNVTEDVS
2. FGGINIGCGQCLFVVR

[0.753, 8.5]

Kindly give each listed record's amyloid nucleation score.
1. CSSWRAYWNSGLQFLVIFGV
2. QEVRSF
3. LAKRGCVIVCFLTFHYTIRR
4. WFDGDQDSNRQTVPIPQLPP
5. RFRFGAVNLV
6. GRVCSRSFL

1: -0.737; 2: 0.6; 3: -0.348; 4: 0.549; 5: 0.849; 6: 2.1
